test system: Canis familiaris; assay: In vivo beta-adrenergic receptor blockade in iv dosed anesthetized dog assessed as inhibition of isoproterenol-induced hypotension; type: functional; conditions: Canis lupus familiaris
property: ED50 (mg/kg)

[[record]]
compound = "CC(C)(C)NC[C@H](O)COc1ccc(-c2ncc[nH]2)cc1"
units_label = "mg/kg"
value_qualifier = ">"
measurement = 1

[[record]]
compound = "CC(C)(C)NCC(O)COc1ccccn1 (stereo not given)"
units_label = "mg/kg"
value_qualifier = "="
measurement = 0.07

[[record]]
compound = "Cc1cnc(-c2ccc(OC[C@@H](O)CNC(C)(C)C)cc2)[nH]1"
units_label = "mg/kg"
value_qualifier = ">"
measurement = 1

[[record]]
compound = "Cc1cc(C)c(C#N)c(OCC(O)CNC(C)(C)C)n1 (stereo not given)"
units_label = "mg/kg"
value_qualifier = "="
measurement = 0.0026

[[record]]
compound = "CC(C)NCC(O)COc1cccc2ccccc12 (stereo not given)"
units_label = "mg/kg"
value_qualifier = "="
measurement = 0.019

[[record]]
compound = "CC(C)(C)NC[C@H](O)COc1nsnc1N1CCOCC1"
units_label = "mg/kg"
value_qualifier = "="
measurement = 0.0013

[[record]]
compound = "CC(C)NCC(O)COc1ncccc1C#N (stereo not given)"
units_label = "mg/kg"
value_qualifier = "="
measurement = 0.03

[[record]]
compound = "CC(C)(C)NCC(O)COc1ccc(-c2nc(C(F)(F)F)c[nH]2)cc1 (stereo not given)"
units_label = "mg/kg"
value_qualifier = "="
measurement = 0.036

[[record]]
compound = "CC(C)(C)NCC(O)COc1cc(C#N)ccn1 (stereo not given)"
units_label = "mg/kg"
value_qualifier = ">"
measurement = 0.03

[[record]]
compound = "CC(C)(C)NC[C@@H](O)COc1ncccc1C#N.Cl"
units_label = "mg/kg"
value_qualifier = "="
measurement = 0.1

[[record]]
compound = "Cc1ccc(C#N)c(OCC(O)CNC(C)(C)C)n1 (stereo not given)"
units_label = "mg/kg"
value_qualifier = "<"
measurement = 0.01

[[record]]
compound = "CC(C)(C)NC[C@H](O)COc1ncccc1C#N.Cl"
units_label = "mg/kg"
value_qualifier = "="
measurement = 0.0052

[[record]]
compound = "CC(C)(C)NCC(O)COc1ccc(-c2ncc(-c3ccccc3)[nH]2)cc1 (stereo not given)"
units_label = "mg/kg"
value_qualifier = "="
measurement = 0.083

[[record]]
compound = "CC(C)(C)NCC(O)COc1ccc(-c2ncc(C(F)(F)F)[nH]2)cn1 (stereo not given)"
units_label = "mg/kg"
value_qualifier = "="
measurement = 0.058

[[record]]
compound = "CC(C)(C)NCC(O)COc1ncccc1C(F)(F)F (stereo not given)"
units_label = "mg/kg"
value_qualifier = "<"
measurement = 0.001


---

system: Rattus norvegicus; assay: Antihypertensive activity in spontaneously hypertensive Wistar-Okamoto rat assessed as maximal fall in mean arterial pressure at 5 mg/kg, po; format: functional, Artery
Reported values of Activity for individual entries
property: Activity (mmHg)

[[record]]
molecule = "CC(C)(C)NCC(O)COc1cc(C#N)ccn1 (stereo unspecified)"
property = "Activity"
units_label = "mmHg"
measurement = 30

[[record]]
molecule = "Cc1ccc(C#N)c(OCC(O)CNC(C)(C)C)n1 (stereo unspecified)"
property = "Activity"
units_label = "mmHg"
measurement = 5

[[record]]
molecule = "CC(C)(C)NCC(O)COc1ccc(-c2nc(C(F)(F)F)c[nH]2)cc1 (stereo unspecified)"
property = "Activity"
units_label = "mmHg"
measurement = 49

[[record]]
molecule = "Cc1c[nH]c(-c2ccc(OCC(O)CNC(C)(C)C)cc2)n1 (stereo unspecified)"
property = "Activity"
units_label = "mmHg"
measurement = 19

[[record]]
molecule = "CC(C)NCC(O)COc1cccc2ccccc12 (stereo unspecified) [PROPRANOLOL]"
property = "Activity"
units_label = "mmHg"
measurement = 7

[[record]]
molecule = "CC(C)(C)NCC(O)COc1ccc(-c2ncc(-c3ccccc3)[nH]2)cc1 (stereo unspecified)"
property = "Activity"
units_label = "mmHg"
measurement = 30

[[record]]
molecule = "CC(C)(C)NCC(O)COc1ncccc1S(C)(=O)=O (stereo unspecified)"
property = "Activity"
units_label = "mmHg"
measurement = 12

[[record]]
molecule = "CC(C)(C)NC[C@@H](O)COc1ncccc1C#N.Cl"
property = "Activity"
units_label = "mmHg"
measurement = 27

[[record]]
molecule = "CC(C)(C)NCC(O)COc1ccccn1 (stereo unspecified)"
property = "Activity"
units_label = "mmHg"
measurement = 10

[[record]]
molecule = "Cc1cc(C)c(C#N)c(OCC(O)CNC(C)(C)C)n1 (stereo unspecified)"
property = "Activity"
units_label = "mmHg"
measurement = 16

[[record]]
molecule = "Cc1cc(OCC(O)CNC(C)(C)C)cc(C)c1-c1ncc(C(F)(F)F)[nH]1 (stereo unspecified)"
property = "Activity"
units_label = "mmHg"
measurement = 19


---

system: Rattus norvegicus; assay: Antihypertensive activity in spontaneously hypertensive Wistar-Okamoto rat assessed as duration of action at 20 mg/kg, po; type: functional
property: Time (h)

[[record]]
compound = "CC(C)(C)NCC(O)COc1ncccc1C(F)(F)F (stereo not given)"
value_qualifier = "="
measurement = 18

[[record]]
compound = "Cc1cc(C)c(C#N)c(OCC(O)CNC(C)(C)C)n1 (stereo not given)"
value_qualifier = "="
measurement = 8

[[record]]
compound = "CC(C)(C)NCC(O)COc1cc(C#N)ccn1 (stereo not given)"
value_qualifier = "="
measurement = 4

[[record]]
compound = "CC(C)NCC(O)COc1ncccc1C#N (stereo not given)"
value_qualifier = "="
measurement = 4

[[record]]
compound = "CC(C)(C)NCC(O)COc1ccc(-c2ncc(-c3ccccc3)[nH]2)cc1 (stereo not given)"
value_qualifier = ">"
measurement = 24

[[record]]
compound = "Cc1cc(OCC(O)CNC(C)(C)C)cc(C)c1-c1ncc(C(F)(F)F)[nH]1 (stereo not given)"
value_qualifier = "="
measurement = 18

[[record]]
compound = "CC(C)(C)NC[C@@H](O)COc1ncccc1C#N.Cl"
value_qualifier = "="
measurement = 4

[[record]]
compound = "CC(C)(C)NCC(O)COc1ccc(-c2ncc(C(F)(F)F)[nH]2)cn1 (stereo not given)"
value_qualifier = ">"
measurement = 7

[[record]]
compound = "Cc1c[nH]c(-c2ccc(OCC(O)CNC(C)(C)C)cc2)n1 (stereo not given)"
value_qualifier = "="
measurement = 8

[[record]]
compound = "CC(C)NCC(O)COc1cccc2ccccc12 (stereo not given) [PROPRANOLOL]"
value_qualifier = "="
measurement = 12


---

tested on: Rattus norvegicus; experiment: Antihypertensive activity in spontaneously hypertensive Wistar-Okamoto rat assessed as duration of action at 5 mg/kg, po; type: functional
Listing of entries alongside the reported Time.
property: Time (h)

[[record]]
compound = "CC(C)(C)NCC(O)COc1ccc(-c2nc(C(F)(F)F)c[nH]2)cc1 (configuration not stated)"
value_qualifier = "="
measurement = 18

[[record]]
compound = "Cc1c[nH]c(-c2ccc(OCC(O)CNC(C)(C)C)cc2)n1 (configuration not stated)"
value_qualifier = "<"
measurement = 8

[[record]]
compound = "CC(C)(C)NCC(O)COc1ccc(-c2ncc(-c3ccccc3)[nH]2)cc1 (configuration not stated)"
value_qualifier = "="
measurement = 4

[[record]]
compound = "CC(C)(C)NC[C@@H](O)COc1ncccc1C#N.Cl"
value_qualifier = "="
measurement = 1

[[record]]
compound = "CC(C)(C)NCC(O)COc1cc(C#N)ccn1 (configuration not stated)"
value_qualifier = "="
measurement = 2

[[record]]
compound = "CC(C)NCC(O)COc1cccc2ccccc12 (configuration not stated)"
value_qualifier = "<"
measurement = 8

[[record]]
compound = "Cc1cc(OCC(O)CNC(C)(C)C)cc(C)c1-c1ncc(C(F)(F)F)[nH]1 (configuration not stated)"
value_qualifier = "="
measurement = 4

